// values below are reported GI50
Test system: P388
Assay: Concentration required to inhibit mouse P388 cell line growth by 50% at 72 hr continuous exposure
Assay type: functional
Details: P388, 72 h
measured.metric: GI50 (ng/mL)

1) CC(=O)O[C@@]12CO[C@@H]1CC[C@@]1(C)[C@@H]3O[C@H](CN(C)C)O[C@@H]3C3=C(C)[C@@H](OC(=O)[C@H](O)[C@@H](NC(=O)OC(C)(C)C)c4nccs4)C[C@@](O)([C@@H](OCc4ccccc4)[C@@H]12)C3(C)C 0.25
2) CC(=O)O[C@@]12CO[C@@H]1CC[C@@]1(C)[C@@H]3O[C@H](CN(C)C)O[C@@H]3C3=C(C)[C@@H](OC(=O)[C@H](O)[C@@H](NC(=O)OC(C)(C)C)c4cncs4)C[C@@](O)([C@@H](OCc4ccccc4)[C@@H]12)C3(C)C 0.07

###

System: PC-12
Experiment: Concentration required to inhibit human PC-12 cell line growth by 50% at 72 hr continuous exposure
Assay type: functional
Conditions: PC-12, 72 h
measured.metric: GI50 (ng/mL)

1. CC(=O)O[C@@]12CO[C@@H]1CC[C@@]1(C)[C@@H]3O[C@H](CNC4CC4)O[C@@H]3C3=C(C)[C@@H](OC(=O)[C@H](O)[C@@H](NC(=O)OC(C)(C)C)c4ccccn4)C[C@@](O)([C@@H](OCc4ccccc4)[C@@H]12)C3(C)C 0.3
2. CC(=O)O[C@@]12CO[C@@H]1CC[C@@]1(C)[C@@H]3O[C@H](CN(C)C)O[C@@H]3C3=C(C)[C@@H](OC(=O)[C@H](O)[C@@H](NC(=O)OC(C)(C)C)c4cccc(F)n4)C[C@@](O)([C@@H](OCc4ccccc4)[C@@H]12)C3(C)C 0.62
3. CC(=O)O[C@@]12CO[C@@H]1CC[C@@]1(C)[C@@H]3O[C@H](CN(C)C)O[C@@H]3C3=C(C)[C@@H](OC(=O)[C@H](O)[C@@H](NC(=O)OC(C)(C)C)c4nccs4)C[C@@](O)([C@@H](OCc4ccccc4)[C@@H]12)C3(C)C 0.35
4. CNC[C@@H]1O[C@@H]2C3=C(C)[C@@H](OC(=O)[C@H](O)[C@@H](NC(=O)OC(C)(C)C)c4ccccn4)C[C@@](O)([C@@H](OCc4ccccc4)[C@H]4[C@@](C)(CC[C@H]5OC[C@]54OC(C)=O)[C@@H]2O1)C3(C)C 5.82

###

System: PC-6
Test: Concentration required to inhibit human PC-6/VP1-1 cell line growth by 50% at 72 hr exposure
Type: functional
Conditions: PC-6, 72 h
measured.metric: GI50

molecule	readout.value
CC(=O)O[C@@]12CO[C@@H]1CC[C@@]1(C)[C@@H]3O[C@H](CNC4CC4)O[C@@H]3C3=C(C)[C@@H](OC(=O)[C@H](O)[C@@H](NC(=O)OC(C)(C)C)c4ccccn4)C[C@@](O)([C@@H](OCc4ccccc4)[C@@H]12)C3(C)C	0.0494 µg/mL
CC(=O)O[C@@]12CO[C@@H]1CC[C@@]1(C)[C@@H]3O[C@H](CN4CCOCC4)O[C@@H]3C3=C(C)[C@@H](OC(=O)[C@H](O)[C@@H](NC(=O)OC(C)(C)C)C(C)(C)C)C[C@@](O)([C@@H](OCc4ccccc4)[C@@H]12)C3(C)C	0.00556 µg/mL
CC(=O)O[C@@]12CO[C@@H]1CC[C@@]1(C)[C@@H]3O[C@H](CNC4CC4)O[C@@H]3C3=C(C)[C@@H](OC(=O)[C@H](O)[C@@H](NC(=O)OC(C)(C)C)c4nccs4)C[C@@](O)([C@@H](OCc4ccccc4)[C@@H]12)C3(C)C	0.0394 µg/mL
CC(=O)O[C@@]12CO[C@@H]1C[C@H](O)[C@@]1(C)[C@@H]3OC(CN4CCOCC4)O[C@@H]3C3=C(C)[C@@H](OC(=O)[C@H](O)[C@@H](NC(=O)OC(C)(C)C)c4ccccn4)C[C@@](O)([C@@H](OCc4ccccc4)[C@H]21)C3(C)C (stereo partly specified)	0.0193 µg/mL
CC(=O)O[C@H]1C(=O)[C@@]2(C)[C@H]([C@H](OCc3ccccc3)[C@]3(O)C[C@H](OC(=O)[C@H](O)[C@@H](NC(=O)c4ccccc4)c4ccccc4)C(C)=C1C3(C)C)[C@]1(OC(C)=O)CO[C@@H]1C[C@@H]2O	1 µg/mL
CC(=O)O[C@@]12CO[C@@H]1CC[C@@]1(C)[C@@H]3O[C@H](CN4CCOCC4)O[C@@H]3C3=C(C)[C@@H](OC(=O)[C@H](O)[C@@H](NC(=O)OC(C)(C)C)c4cccc(F)n4)C[C@@](O)([C@@H](OCc4ccccc4)[C@@H]12)C3(C)C	0.0137 µg/mL

###

// values below are reported Mortality
Test system: Mus musculus
Experiment: Number of mice died at 17.8 mg/kg of intravenous dose among the total 6 mice tested
Format: functional
measured.metric: Mortality

1) CC(=O)O[C@@]12CO[C@@H]1CC[C@@]1(C)[C@@H]3O[C@H](CN4CCOCC4)O[C@@H]3C3=C(C)[C@@H](OC(=O)[C@H](O)[C@@H](NC(=O)OC(C)(C)C)c4cccc(F)n4)C[C@@](O)([C@@H](OCc4ccccc4)[C@@H]12)C3(C)C 0
2) CC(=O)O[C@@]12CO[C@@H]1CC[C@@]1(C)[C@@H]3O[C@H](CN(C)C)O[C@@H]3C3=C(C)[C@@H](OC(=O)[C@H](O)[C@@H](NC(=O)OC(C)(C)C)c4cccc(F)n4)C[C@@](O)([C@@H](OCc4ccccc4)[C@@H]12)C3(C)C 6
3) CC(=O)O[C@@]12CO[C@@H]1CC[C@@]1(C)[C@@H]3O[C@H](CN4CCOCC4)O[C@@H]3C3=C(C)[C@@H](OC(=O)[C@H](O)[C@@H](NC(=O)OC(C)(C)C)c4nccs4)C[C@@](O)([C@@H](OCc4ccccc4)[C@@H]12)C3(C)C 0

###

Tested on: PC-6
Experiment: Concentration required to inhibit human PC-6/VP1-1 cell line growth by 50% at 72 hr exposure
Assay type: functional
Conditions: PC-6, 72 h
// values below are reported GI50
measured.metric: GI50 (µg/mL)

1. CC(=O)O[C@@]12CO[C@@H]1CC[C@@]1(C)[C@@H]3O[C@H](CN(C)C)O[C@@H]3C3=C(C)[C@@H](OC(=O)[C@H](O)[C@@H](NC(=O)OC(C)(C)C)c4ccccn4)C[C@@](O)([C@@H](OCc4ccccc4)[C@@H]12)C3(C)C 0.0542
2. CNC[C@@H]1O[C@@H]2C3=C(C)[C@@H](OC(=O)[C@H](O)[C@@H](NC(=O)OC(C)(C)C)c4ccccn4)C[C@@](O)([C@@H](OCc4ccccc4)[C@H]4[C@@](C)(CC[C@H]5OC[C@]54OC(C)=O)[C@@H]2O1)C3(C)C 0.265
3. CC(=O)O[C@@]12CO[C@@H]1C[C@H](O)[C@@]1(C)C(=O)[C@H](O)C3=C(C)[C@@H](OC(=O)[C@H](O)[C@@H](NC(=O)OC(C)(C)C)c4ccccc4)C[C@@](O)([C@@H](OCc4ccccc4)[C@H]21)C3(C)C 0.442
4. CC(=O)O[C@@]12CO[C@@H]1CC[C@@]1(C)[C@@H]3O[C@H](CN(C)C)O[C@@H]3C3=C(C)[C@@H](OC(=O)[C@H](O)[C@@H](NC(=O)OC(C)(C)C)c4cncs4)C[C@@](O)([C@@H](OCc4ccccc4)[C@@H]12)C3(C)C 0.0238
5. CC(=O)O[C@@]12CO[C@@H]1CC[C@@]1(C)[C@@H]3O[C@H](CNC4CCC4)O[C@@H]3C3=C(C)[C@@H](OC(=O)[C@H](O)[C@@H](NC(=O)OC(C)(C)C)c4ccccn4)C[C@@](O)([C@@H](OCc4ccccc4)[C@@H]12)C3(C)C 0.0817
6. CC(=O)O[C@@]12CO[C@@H]1CC[C@@]1(C)[C@@H]3O[C@H](CN4CCOCC4)O[C@@H]3C3=C(C)[C@@H](OC(=O)[C@H](O)[C@@H](NC(=O)OC(C)(C)C)c4nccs4)C[C@@](O)([C@@H](OCc4ccccc4)[C@@H]12)C3(C)C 0.0197
7. CC(=O)O[C@@]12CO[C@@H]1CC[C@@]1(C)[C@@H]3O[C@H](CN(C)C)O[C@@H]3C3=C(C)[C@@H](OC(=O)[C@H](O)[C@@H](NC(=O)OC(C)(C)C)c4nccs4)C[C@@](O)([C@@H](OCc4ccccc4)[C@@H]12)C3(C)C 0.0391
8. CC(=O)O[C@@]12CO[C@@H]1CC[C@@]1(C)[C@@H]3O[C@H](CN4CCOCC4)O[C@@H]3C3=C(C)[C@@H](OC(=O)[C@H](O)[C@@H](NC(=O)OC(C)(C)C)c4cscn4)C[C@@](O)([C@@H](OCc4ccccc4)[C@@H]12)C3(C)C 0.00913
